# protocolDetails: protein stability index of a GFP-peptide fusion (yeast GPS) (PSI 1-4); higher = more stable; sorted into four equal gates, so the index is relative within each strain
# measurementContext: ubr1∆
Decision: protein stability index >= 3 yields TRUE, all other cases yield FALSE.

residueString	assignedLabel
IKVWTIKGQCLATLLGH [ASC1]	FALSE
TIEDIAVAITRASKLKI [RPO31]	FALSE
STSYHLNSTLESLYDLI [MED6]	FALSE
KQDCVDWFTYSYFYRRI [BRR2]	FALSE
RLTKQAFDWVLSNIEAQ [RPO21]	FALSE
QMTQIMDIMEDFLRYIN [SNF2]	FALSE
IVQAKEPNLAAQQDSTN [ECM29]	FALSE
ETSCDNYHPMNIDETSD [SMC4]	TRUE
QQRFQALQQQQQQQQNQ [SWI1]	FALSE
DVTHTLGMLDDNKMDSV [SMC4]	TRUE
EIKNDFIMVKGCIPGNR [RPL3]	FALSE
HKKDRLQYLPLYAVSTF [SIR4]	FALSE
YGILSIDDLIHEIITVG [RPL7A]	FALSE
GISDDENDEEDIYMHDV [RRP4]	TRUE
LKFVKVRVRTTKIPQIG [RPB2]	FALSE
QPNARALERYDEAEGRF [SMC1]	TRUE
LAFKKNEMLLKRVTKVK [MTW1]	FALSE
KLIEKKSAYANTEKDYK [SMC2]	FALSE
SNDVLKPETPKGPIIIS [SIR2]	FALSE
LVEPSKVGQFDQVLNLC [FAS1]	FALSE
DAVLKIFSFHQDSIFQR [SRB8]	FALSE
IPAAGNNRSVSMQTIAE [SRB5]	TRUE
KYREGQVLFQGLIYSFN [POP1]	FALSE
DALRRGMLAMASLHSKE [MED4]	FALSE
LGDMENNLEKYPFRYKT [RTT102]	TRUE
ETTTEEDSENPSDWQRN [ITC1]	TRUE
NQGVNELKYQRSLRATA [RPL15A]	FALSE
VHKERHDGGFDLVHIKD [RPS4A]	FALSE
NSIDSTSRIELELKNIG [ECM29]	FALSE
LEEEFVSNSEILKPFEK [RPT2]	FALSE
GGTNEDDFTDAIQFVKE [YCS4]	TRUE
DDYSNLKREERQGLIHQ [SMC3]	FALSE
TLYIGNTANGRPPVKAI [ECM29]	FALSE
KRIESLQKDLQRQKTYV [SMC1]	FALSE
LPKVRYNVEKVKRLMDF [NSL1]	FALSE
GIFLHGKIPTLKISLIQ [PRP8]	FALSE
LEKIHSIEVQSLPEFFT [SWI3]	FALSE
VKKAVTVHSKSRTRAHA [RPL19A]	TRUE
HAQLLLSDRITGNFIIP [PRP8]	FALSE
FSHPAHQQRMSRTAADI [YCG1]	FALSE
GKIVGFDEFMNVVIDEA [SME1]	TRUE
TKFFDDAKSTPLRLRLY [RPN9]	FALSE
DRHIGCVYSGLIPDGRH [PRE10]	TRUE
DIPLAKALDNACGAFIN [CDC53]	FALSE
RYKFPGQQKIILSKKWG [RPL10]	FALSE
PDILATDLIREKTMMTF [YCS4]	FALSE
VYINPSGEKIDFLLSDW [BRR2]	FALSE
SLQYIERQQDELENFLD [YJL041W/NSP1]	TRUE
